Provide the recorded GI50 for the entries that follow.
Tested on: SK-MEL-5
Assay: NCI tumour cell line growth inhibition, 48 h
Calls of active or inactive are those of the source. No stated cut-off is given here; in the data, active = GI50 up to about 1.1 µM and inactive = higher.

- Compound: "c1ccc([P+](Cc2ccccc2C[P+](c2ccccc2)(c2ccccc2)c2ccccc2)(c2ccccc2)c2ccccc2)cc1"
  GI50: "> 100 µM (inactive)"

Would you be so kind as to report GI50 for each listed record?
1. Cc1cccc(C)c1N1C(=O)C(=O)C(c2nc3ccccc3s2)/C(=N\N)C1=O (stereo unspecified)
2. O=[N+]([O-])/C(C(Cl)=C(Cl)Cl)=C1\NCCS1
3. COC(=O)CCC(C)[C@H]1CCC2C3CC[C@@H]4CC5(CC[C@]4(C)C3C[C@H](OC(C)=O)[C@@]21C)OOC1(CCCCC1)OO5 (stereo partly specified)
4. O=C(c1c(Cl)cc(Cl)cc1Cl)N(Cc1cccnc1)C(=S)N(Cc1cccnc1)C(=O)c1c(Cl)cc(Cl)cc1Cl
5. CNC(=O)OCc1c(COC(=O)NC)c(C)n(-c2ccc(Br)cc2)c1C
6. ClCCCN1CCN(CCCl)CC1

(A)
["> 100 µM (inactive)", "> 100 µM (inactive)", "5.78 µM (inactive)", "10.9 µM (inactive)", "13.6 µM (inactive)", "239 µM (inactive)"]

Would you be so kind as to report GI50 for each listed record?
1. C[C@@]12[Se]c3ccccc3[C@]1(C)[Se]c1ccccc12
2. CCCC(=O)Nc1ccc(O)c2c1C1CCCCCC21 (stereo unspecified)
3. CC(Nc1ccc(Cl)cc1)c1ccncc1 (stereo unspecified)
4. C=CC1ON(C)CCc2cc(OC)c(OC)cc21 (stereo unspecified)

(A)
1. 4.21 µM (inactive)
2. 72.4 µM (inactive)
3. 36.6 µM (inactive)
4. > 100 µM (inactive)

---

Provide the recorded GI50 for the entries that follow.
Test system: HCT-15
Numbers only, in µM.

Please review the entries below; each comes with its answer.
- Compound: "C=C(C)C(O)CCC1(C)C=Cc2c(c(C)cc3c2[nH]c2ccccc23)O1 (centres undefined)"
  System Tested: "HCT-15"
  GI50 [µM]: 4.26
- Compound: "COc1ccc(CNc2nc3ccc(C(F)(F)F)cc3nc2-c2ccccc2)cc1OC"
  System Tested: "HCT-15"
  GI50 [µM]: 25.1

Would you be so kind as to report GI50 for each listed record?
1. COC(=O)C1=C(OC)C(=P2(c3ccccc3)CC(c3ccccc3)=C2c2ccccc2)C(C(=O)OC)=C1C(=O)OC (centres undefined)
2. COc1cc2c(cc1OCCCOc1cc3c(cc1OC)C(=O)N1CCC[C@H]1CN3)N=C[C@@H]1CCCN1C2=O
3. CCCCCCCCCC[C@@H](O)[C@@H]1CC[C@H]([C@H]2CC[C@@H]([C@@H](O)CCCCCCCCCC[C@H]3CC(CC(C)=O)C(=O)O3)O2)O1 (some centres undefined)

(A)
[11, 1.86, 4.55]

Would you be so kind as to report GI50 for each listed record?
1. Cc1ccc2c(c1)c(=O)c1c(NCCN(C)C)ccc3nnn2c31
2. COC(=O)C1=C(O)C(C(=O)OC)[C@]2(O)[C@H](C(=O)OC)[C@H]1C[C@@H](c1ccc([N+](=O)[O-])cc1)[C@H]2C(=O)OC (some centres undefined)
3. COc1ccc2c(c1)[nH]c1c3ccc(OC)cc3oc(=O)c21

(A)
1. 4.18
2. 12.7
3. 5.27

Sure, the documented GI50 for CN(C)/C=N/S(=O)(=O)c1nn2c(C=O)c(-c3ccc(-c4ccccc4)cc3)nc2s1 is 2.26
